molecular target: hMGL (Homo sapiens, UniProt Q99685); construct: A full-length cDNA clone of the human MGL transcript variant 1; made in house; host or cells: E. coli BL21 (DE3); assay: Fluorescent enzyme assay, MGL (AHMMCE hydrolysis); format: biochemical; conditions: 10 nM inhibitor; AHMMCE substrate; screening assay; read-out: % Inhibition of Enzyme by inhibitor, MGL, 10 nM
Sequence (Q99685 2-303 limits assumed): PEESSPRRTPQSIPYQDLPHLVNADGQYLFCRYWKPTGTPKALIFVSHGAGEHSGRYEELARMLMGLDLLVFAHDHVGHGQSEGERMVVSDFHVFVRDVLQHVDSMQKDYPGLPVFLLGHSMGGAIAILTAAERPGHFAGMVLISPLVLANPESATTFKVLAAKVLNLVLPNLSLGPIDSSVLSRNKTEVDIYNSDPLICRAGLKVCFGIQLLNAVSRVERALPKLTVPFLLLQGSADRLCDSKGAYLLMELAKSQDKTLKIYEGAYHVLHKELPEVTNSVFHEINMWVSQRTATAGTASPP
Quick list: inhibition at 0.01 µM per entry.
propertyLabel: inhibition at 0.01 µM (%)

> print(dat)
                                   compound          propertylabel  measured
1  CN(C)C(=O)n1nnc(Cc2ccc(I)cc2)n1 [Compound 18a]  inhibition at 0.01 µM        97
2  CN(C)C(=O)n1nnc(Cc2ccc(Cl)cc2Cl)n1 [Compound 17a]  inhibition at 0.01 µM        99
3  CN(C)C(=O)n1cnc(-c2ccccc2)n1 [Compound 52]  inhibition at 0.01 µM         2
4   CN(C)C(=O)n1nnnc1Cc1cccnc1 [Compound 5]  inhibition at 0.01 µM        81
5  CN(C)C(=O)n1nnnc1Cc1ccc(Cl)cc1 [Compound 21b]  inhibition at 0.01 µM        54
6     CN(C)C(=O)n1nnc2ccccc21 [Compound 28]  inhibition at 0.01 µM        30
